Details: human, serum, 4383 h;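 note: chronic liver injury confirmed by histopathology or persistently raised serum aminotransferase activity beyond 6 months, value given as the count of indexed literature references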
Please respond with reported Hepatotoxicity (chronic liver disease) for every item in the list.
Answers are plain numbers.

Please state, for each entry, its recorded Hepatotoxicity (chronic liver disease).
1. CN(Cc1cnc2nc(N)nc(N)c2n1)c1ccc(C(=O)N[C@@H](CCC(=O)O)C(=O)O)cc1 [METHOTREXATE]
2. COCCOC(=O)C1=C(C)NC(C)=C(C(=O)OC(C)C)C1c1cccc([N+](=O)[O-])c1 (stereo not drawn) [NIMODIPINE]
3. COc1cc([C@@H]2c3cc4c(cc3[C@@H](O[C@@H]3O[C@@H]5CO[C@@H](C)O[C@H]5[C@H](O)[C@H]3O)[C@H]3COC(=O)[C@H]23)OCO4)cc(OC)c1O [ETOPOSIDE]

[45, 0, 0]

Where do these numbers come from? They come from ChEMBL document CHEMBL3137667.
